- System: purified human Hsp90
- measurement_notes: Binding Assay: fluorescence polarization with BODIPY-labeled geldanamycin
- experimental_setup: 5 μM compound, BODIPY-GM 10 nM, Hsp90 30 nM
readout_type: % Inhibition at 5 μM Compound Concentration (%)

Worked examples, 5 molecules total:
molecule	test_result
Nc1ncn(CCc2ccccc2[N+](=O)[O-])c2nc(Sc3cc4c(cc3Br)OCO4)nc1-2	46
CC(C)(C)OC(=O)N1CCC(Cn2cnc(N)c3nc(Sc4cc5c(cc4Br)OCO5)nc2-3)CC1	19.00
COc1ccc(OC)c(Sc2nc3c(N)ncn(CCc4cccc5ccccc45)c-3n2)c1	0
CC(C)(C)OC(=O)N1CCC(CCn2cnc(N)c3nc(Sc4cc5c(cc4Br)OCO5)nc2-3)CC1	22
CC(C)N1CCN(CCn2cnc(N)c3nc(Sc4cc5c(cc4Br)OCO5)nc2-3)CC1	29

a = COc1ccc(OC)c(Sc2nc3c(N)ncn(CCc4cccc(C(F)(F)F)c4)c-3n2)c1
b = Nc1ncnc2c1nc(Sc1cc3c(cc1Br)OCO3)n2CCC1CCCCC1
## Input Lab log: flag the item ( a or b ) with the smaller % Inhibition at 5 μM Compound Concentration figure. Identify your pick by its label.
## Output a

A = Cc1ccsc1Sc1nc2c(N)ncn(CCC3CCN(C=O)CC3)c-2n1
B = CS(=O)(=O)N1CCC(CCn2cnc(N)c3nc(Sc4cc5c(cc4Br)OCO5)nc2-3)CC1
C = CCOC(=O)[C@@H]1C[C@H](CCn2cnc(N)c3nc(Sc4cc5c(cc4Br)OCO5)nc2-3)CCN1 (relative stereo)
D = COc1ccc(OC)c(Sc2nc3c(N)ncnc3n2CCn2cccc2)c1
## Input Hey, can you sort those molecules up there by % Inhibition at 5 μM Compound Concentration, smallest first? Returns: the labels listed in the requested order.
## Output C, A, B, D

P = COc1ccc(OC)c(Sc2nc3c(N)ncnc3n2CCc2ccccc2[N+](=O)[O-])c1
Q = COc1c(F)cc(Sc2nc3c(N)ncn(CCC4CCN(C(C)=O)CC4)c-3n2)cc1Cl
R = COc1ccc(CN2CCC(CCn3cnc(N)c4nc(Sc5cc6c(cc5Br)OCO6)nc3-4)CC2)cc1
S = CC(C)NC(=O)N1CCC(CCn2cnc(N)c3nc(Sc4cc5c(cc4Br)OCO5)nc2-3)CC1
## Input Ranking field: % Inhibition at 5 μM Compound Concentration; order: falling. Sort the labels as requested; that list is your answer.
## Output P, R, S, Q
(P: 80%, R: 43.00%, S: 24%, Q: 0.00%)

----------
- subject_of_test: purified human Hsp90
- measurement_notes: Binding Assay: fluorescence polarization with BODIPY-labeled geldanamycin
- experimental_setup: BODIPY-GM 10 nM, Hsp90 30 nM
pIC50: −log10 of the molar value.
readout_type: pIC50

Examples with answers:
molecule	subject_of_test	pIC50
COC(=O)CCCNC(=O)N1CCC(CCn2c(Sc3cc4c(cc3Br)OCO4)nc3c(N)ncnc32)CC1 [Example 500]	purified human Hsp90	7.22
Nc1ncnc2c1nc(Sc1cc3c(cc1Br)OCO3)n2CCC1CCN(C=O)CC1 [Example 363]	purified human Hsp90	6.52

1 = C[C@@H](N)C(=O)N1CCCC(CCn2c(Sc3cc4c(cc3Br)OCO4)nc3c(N)ncnc32)C1 (stereo partly shown) [Example 743]
2 = CC(C)(C)OC(=O)NC(CCn1c(Sc2cc3c(cc2Br)OCO3)nc2c(N)ncnc21)C1CCCC1 (stereo not shown) [Example 681]
## Input Between 1 and 2 , whose measured pIC50 reads higher? Response format: the label of the selected entry.
## Output 1
(1: 7.40, 2: 6.00)

----------
- subject_of_test: purified human Hsp90
- measurement_notes: Binding Assay: fluorescence polarization with BODIPY-labeled geldanamycin
- experimental_setup: BODIPY-GM 10 nM, Hsp90 30 nM
readout_type: IC50 (nM)

compound	IC50, nM
CS(=O)(=O)NC(CCn1c(Sc2cc3c(cc2Br)OCO3)nc2c(N)ncnc21)C1CC1 (centres unmarked)	80

a = CC(C)(C)OC(=O)NC(CCn1cnc(N)c2nc(Sc3cc4c(cc3Br)OCO4)nc1-2)C1CCCCC1 (centres unmarked)
b = COC(=O)CCCNC(=O)N1CCCC(CCn2c(Sc3cc4c(cc3Br)OCO4)nc3c(N)ncnc32)C1 (centres unmarked)
## Input Consider a and b . Which of these has its IC50 at a higher number? Answer = label.
## Output a
(a: 1000 nM, b: 190 nM)

----------
- Test system: purified human Hsp90
- measurement_notes: Binding Assay: fluorescence polarization with BODIPY-labeled geldanamycin
- experimental_setup: 5 μM compound, BODIPY-GM 10 nM, Hsp90 30 nM
readout_type: % Inhibition at 5 μM Compound Concentration (%)

compound	test_result
COc1ccc(OC)c(Sc2nc3c(N)ncn(CCn4cccc4)c-3n2)c1	5
Nc1ncn(CCc2cccc3ccccc23)c2nc(Sc3cc4c(cc3Br)OCO4)nc1-2	0
COc1ccc(OC)c(Sc2nc3c(N)ncnc3n2CCc2ccccc2C(F)(F)F)c1	100

a = CCNC(=O)N1CCCC(CCn2cnc(N)c3nc(Sc4cc5c(cc4Br)OCO5)nc2-3)C1 (centres unmarked)
b = Nc1ncn(Cc2ccccc2)c2nc(Sc3cc4c(cc3Br)OCO4)nc1-2
## Input Among a and b , whose measured % Inhibition at 5 μM Compound Concentration is the smaller figure? Give the label of your selection.
## Output b
(b: 20%, a: 60%)

A = COc1ccc(OC)c(Sc2nc3c(N)ncn(CCn4cnc5ccccc5c4=O)c-3n2)c1
B = COc1ccc(OC)c(Sc2nc3c(N)ncnc3n2CCc2ccc(Br)cc2)c1
## Input Please choose the item with the lower % Inhibition at 5 μM Compound Concentration value from this pair: A and B Answer with the label corresponding to your selection.
## Output A
(A: 16%, B: 41%)

----------
- subject_of_test: purified human Hsp90
- measurement_notes: Binding Assay: fluorescence polarization with BODIPY-labeled geldanamycin
- experimental_setup: BODIPY-GM 10 nM, Hsp90 30 nM
# IC50 per record follows

Below, each entry is followed by its recorded IC50 result.
compound	subject_of_test	IC50
Nc1ncnc2c1nc(Sc1cc3c(cc1Br)OCO3)n2CCC1CCCCN1CC1CCCCC1 (stereo not shown)	purified human Hsp90	> 2 µM
Nc1ncnc2c1nc(Sc1ccc(NC=O)c(O)c1)n2CCc1ccccc1	purified human Hsp90	> 25 µM
COc1ccc(OC)c(Sc2nc3c(N)ncnc3n2CCc2cccc(F)c2F)c1	purified human Hsp90	> 3 µM
COc1ccc(OC)c(Sc2nc3c(N)ncnc3n2CCc2ccc(-c3ccccc3)cc2)c1	purified human Hsp90	> 25 µM
COc1cc(Sc2nc3c(N)ncn(CCc4ccc(Cl)cc4)c-3n2)cc(OC)c1OC	purified human Hsp90	> 10 µM
CCC(CC)N1CCN(CCn2c(Sc3cc(OC)ccc3OC)nc3c(N)ncnc32)CC1	purified human Hsp90	> 8 µM
COc1c(F)cc(Sc2nc3c(N)ncnc3n2CCC2CCN(C(C)=O)CC2)cc1Cl	purified human Hsp90	> 5 µM
COc1ccc(OC)c(Sc2nc3c(N)ncnc3n2CCc2ccc(S(=O)(=O)NC(C)(C)C)cc2)c1	purified human Hsp90	> 3 µM
COc1cc(Sc2nc3c(N)ncn(CCCc4ccccc4)c-3n2)cc(OC)c1OC	purified human Hsp90	> 10 µM

## Input Quick one: IC50 for COc1ccc(OC)c(Sc2nc3c(N)ncnc3n2CC2(c3ccc(Cl)cc3)CCC2)c1 ?
## Output > 10 µM

----------
The following molecules are listed with their measured IC50 values.
- subject_of_test: purified human Hsp90
- measurement_notes: Binding Assay: fluorescence polarization with BODIPY-labeled geldanamycin
- experimental_setup: BODIPY-GM 10 nM, Hsp90 30 nM

molecule	IC50
Nc1ncnc2c1nc(Sc1cc3c(cc1Br)OCO3)n2CCc1cccnc1	0.05 µM
COc1ccc(OC)c(Sc2nc3c(N)ncn(CCc4ccc(C(C)=O)cc4)c-3n2)c1	> 5 µM
COc1ccc(OC)c(Sc2nc3c(N)ncn(CCc4cccc(F)c4)c-3n2)c1	> 10 µM

Now let's try a different one.
## Input Item CCC(C)C(Cn1c(Sc2cc(OC)ccc2OC)nc2c(N)ncnc21)c1ccccc1 (stereo not shown) has what recorded IC50?
## Output > 1 µM

----------
- Test system: purified human Hsp90
- measurement_notes: Binding Assay: fluorescence polarization with BODIPY-labeled geldanamycin
- experimental_setup: 5 μM compound, BODIPY-GM 10 nM, Hsp90 30 nM
readout_type: % Inhibition at 5 μM Compound Concentration (%)

molecule	measure_unit	test_result
CN1C2CCC1CC(CCn1cnc(N)c3nc(Sc4cc5c(cc4Br)OCO5)nc1-3)C2 (stereo not shown)	%	32

1 = COc1ccc(OC)c(Sc2nc3c(N)ncn(CCc4c(F)cccc4Cl)c-3n2)c1
2 = Nc1ncn(CCc2ccccc2)c2nc(Sc3ccc4ncoc4c3)nc1-2
## Input Between the entries labelled 1 and 2 , which has a larger % Inhibition at 5 μM Compound Concentration value on record? Please indicate the selected item by its label.
## Output 2
